Reference source: paper PMC11574364

# ASSAYED SYSTEM: YTHDF2 (Homo sapiens, UniProt Q9Y5A9)
# Sequence: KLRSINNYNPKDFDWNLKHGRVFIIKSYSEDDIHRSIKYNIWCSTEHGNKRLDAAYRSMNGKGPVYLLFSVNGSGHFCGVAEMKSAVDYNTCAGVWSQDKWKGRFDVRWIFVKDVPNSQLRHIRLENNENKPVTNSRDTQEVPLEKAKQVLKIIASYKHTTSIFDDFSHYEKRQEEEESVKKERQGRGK
# EXPERIMENT: protein domain microarray probed with biotinylated miRNA; Domain array: 20 mM Tris-HCl pH 7.4, 200 mM KCl, 0.2 mM EDTA, 0.05% NP40, 2 ug/ul heparin, overnight 4 C. ORF array: PBS pH 7.0 with RNase inhibitor, 100 ng RNA; high values mean tight binding
# MEASUREMENT CONTEXT: ssRNA
EXPERIMENTAL READOUT: binding signal
Enter the number, and then the unit.

Some sequences with known binding signal results, for comparison:
RESIDUE STRING: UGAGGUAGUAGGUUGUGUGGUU
ASSAYED SYSTEM: YTHDF2 (Homo sapiens, UniProt Q9Y5A9)
READING: 90.3 fluorescence intensity

RESIDUE STRING: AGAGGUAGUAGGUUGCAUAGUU
ASSAYED SYSTEM: YTHDF2 (Homo sapiens, UniProt Q9Y5A9)
READING: 38.4 fluorescence intensity

RESIDUE STRING: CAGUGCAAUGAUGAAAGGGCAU
ASSAYED SYSTEM: YTHDF2 (Homo sapiens, UniProt Q9Y5A9)
READING: 30.8 fluorescence intensity

// binding signal value for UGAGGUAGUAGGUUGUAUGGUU : 72.2 fluorescence intensity
